Tested on: Bacillus subtilis
Test: cleaved RNA product abundance (RNA/gDNA barcode ratio) relative to median wild-type variant (ratio to wild type); higher = more accumulation of the downstream cleavage product
Details: experiment (reporter, strain, medium): exp 4a: truncated aprE reporter, strain BJT201 with 2% xylose (RNase J1 expressed); cleavage site: cggR-gapA (positions -7 to +36 mutated)
The following sequences are listed with their measured cleaved RNA product abundance values.
REPORTED_ENDPOINT: cleaved RNA product abundance

sequence_chain=ACAGACGAAGGAGCCGCAAAAAAGTTAGTAAGGGATGAATAATCCCTCAATATAAATATCTCTCACTTATTTAAA reported_endpoint="cleaved RNA product abundance" value_measured=0.374
sequence_chain=ACAGACGAAGGAGCCGCAAAAAAGTTATTAAGAGATGAATAATTCCTCAATATAAATATCTCTCACTTATTTAAA reported_endpoint="cleaved RNA product abundance" value_measured=0.159
sequence_chain=ACAGACGAAGGAGCCGCAAAGAAGTTATTAAGGGATGAATAAACCCTCAATATAGATATCTCTCACTTATTTAAA reported_endpoint="cleaved RNA product abundance" value_measured=0.342
sequence_chain=ACAGACGAAGGAGCCGCAAAGAAATTATTAAGGAATGAATAATCCTTCAATATAAATATCTCTCACTTATTTAAA reported_endpoint="cleaved RNA product abundance" value_measured=0.153
